Molecular target: Endothelin-converting enzyme 1 (Homo sapiens, UniProt P42892)
Sequence (P42892 whole entry): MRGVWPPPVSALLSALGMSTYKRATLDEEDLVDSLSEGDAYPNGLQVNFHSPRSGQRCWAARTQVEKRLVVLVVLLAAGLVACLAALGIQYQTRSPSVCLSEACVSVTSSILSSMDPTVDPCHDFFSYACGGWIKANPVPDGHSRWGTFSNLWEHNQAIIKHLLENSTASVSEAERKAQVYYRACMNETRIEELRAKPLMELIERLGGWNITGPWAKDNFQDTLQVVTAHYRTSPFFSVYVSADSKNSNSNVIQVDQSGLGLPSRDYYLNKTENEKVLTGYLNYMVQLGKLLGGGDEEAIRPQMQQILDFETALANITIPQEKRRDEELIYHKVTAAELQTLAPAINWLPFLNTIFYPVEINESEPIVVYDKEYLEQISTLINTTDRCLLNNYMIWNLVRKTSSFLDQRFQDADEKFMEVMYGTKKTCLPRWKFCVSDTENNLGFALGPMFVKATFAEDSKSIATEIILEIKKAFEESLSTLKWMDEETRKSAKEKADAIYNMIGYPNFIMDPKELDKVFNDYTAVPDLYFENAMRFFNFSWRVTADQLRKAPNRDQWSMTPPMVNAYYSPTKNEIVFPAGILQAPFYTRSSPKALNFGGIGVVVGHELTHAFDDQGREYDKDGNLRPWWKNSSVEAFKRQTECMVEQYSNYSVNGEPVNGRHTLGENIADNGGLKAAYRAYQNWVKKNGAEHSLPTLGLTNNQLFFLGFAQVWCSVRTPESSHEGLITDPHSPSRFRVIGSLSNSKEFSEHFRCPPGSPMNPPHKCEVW
Assay: Inhibition activity towards human recombinant Endothelin-converting enzyme 1 (hECE-1c) expressed in Cos-7 cells
Assay type: cell-based
pKi: −log10 of the molar value.
ASSAY_READOUT: pKi

[
  {
    "COMPOUND": "C[C@H](c1ccccc1)[C@H](CS)C(=O)N[C@@H](Cc1c[nH]c2ccccc12)C(=O)O",
    "ENDPOINT_VALUE": 7.00
  },
  {
    "COMPOUND": "C[C@H](c1ccc(-c2ccccc2)cc1)[C@@H](CS)C(=O)N[C@@H](Cc1c[nH]c2ccccc12)C(=O)O",
    "ENDPOINT_VALUE": 6.72
  },
  {
    "COMPOUND": "C[C@H](c1ccc(-c2ccccc2)cc1)[C@H](CS)C(=O)N[C@@H](Cc1c[nH]c2ccccc12)C(=O)O",
    "ENDPOINT_VALUE": 6.96
  }
]

I. C[C@@H](c1ccc(-c2ccccc2)cc1)[C@H](CS)C(=O)N[C@@H](Cc1c[nH]c2ccccc12)C(=O)O
II. CC(c1ccc(-c2ccccc2)cc1)C(CS)C(=O)N[C@@H](Cc1c[nH]c2ccccc12)C(=O)O (stereo partly drawn)
input: Select the item with the higher value of pKi from the options I and II listed. Returns: label corresponding to the selected item.
output: II
(II: 6.66, I: 6.04)

====

Molecular target: UniProt:P08049
Sequence (P08049 whole entry): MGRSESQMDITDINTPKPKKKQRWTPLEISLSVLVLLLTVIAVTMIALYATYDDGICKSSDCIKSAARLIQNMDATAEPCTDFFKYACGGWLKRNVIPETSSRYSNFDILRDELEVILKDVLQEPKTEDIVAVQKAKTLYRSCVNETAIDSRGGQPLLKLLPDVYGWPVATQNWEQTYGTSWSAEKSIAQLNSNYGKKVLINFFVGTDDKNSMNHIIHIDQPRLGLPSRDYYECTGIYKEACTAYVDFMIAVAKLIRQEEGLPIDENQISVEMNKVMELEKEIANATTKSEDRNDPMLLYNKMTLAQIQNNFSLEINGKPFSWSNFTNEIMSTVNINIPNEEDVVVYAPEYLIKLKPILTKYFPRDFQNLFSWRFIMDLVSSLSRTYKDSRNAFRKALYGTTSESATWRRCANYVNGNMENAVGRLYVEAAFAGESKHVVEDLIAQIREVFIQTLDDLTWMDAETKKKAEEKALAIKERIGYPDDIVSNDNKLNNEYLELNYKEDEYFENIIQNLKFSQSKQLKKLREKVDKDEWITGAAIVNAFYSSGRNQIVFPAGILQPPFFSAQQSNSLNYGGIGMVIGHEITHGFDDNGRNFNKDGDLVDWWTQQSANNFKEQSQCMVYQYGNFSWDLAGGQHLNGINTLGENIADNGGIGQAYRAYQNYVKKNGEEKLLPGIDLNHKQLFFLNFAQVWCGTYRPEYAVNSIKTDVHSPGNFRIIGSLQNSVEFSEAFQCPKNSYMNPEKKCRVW
pIC50: −log10 of the molar value.
ASSAY_READOUT: pIC50

1. CS(=O)(=O)N[C@@H](CCCCN)C(=O)N[C@@H](Cc1ccccc1)P(=O)(O)CC1(C(=O)N[C@@H](Cc2c[nH]c3ccccc23)C(=O)O)CCCC1
2. O=C1N[C@H](C(=O)O)CCCCCCc2cccc(c2)CC1CS (some centres not stated)
input: Select the item with the higher value of pIC50 from the options 1 and 2 listed. Returns: label corresponding to the selected item.
output: 2

====

Biological target: UniProt:P08049
Experiment: Inhibition of neutral endopeptidase (NEP) isolated from rabbit kidney
ASSAY_READOUT: Ki (nM)

Example compounds with recorded Ki:
[
  {
    "COMPOUND": "O=C(O)C(Cc1c[nH]c2ccccc12)NC(=O)C(CS)c1cccc(-c2ccccc2)c1 (stereo not given)",
    "UNIT_STRING": "nM",
    "ENDPOINT_VALUE": 35
  },
  {
    "COMPOUND": "C[C@H](c1ccc(-c2ccccc2)cc1)[C@H](CS)C(=O)N[C@@H](Cc1c[nH]c2ccccc12)C(=O)O",
    "UNIT_STRING": "nM",
    "ENDPOINT_VALUE": 30
  },
  {
    "COMPOUND": "O=C(O)[C@H](Cc1c[nH]c2ccccc12)NC(=O)[C@H](CS)[C@H]1CCc2ccccc21",
    "UNIT_STRING": "nM",
    "ENDPOINT_VALUE": 0.7
  },
  {
    "COMPOUND": "CC(c1cccc2ccccc12)C(CS)C(=O)NC(Cc1c[nH]c2ccccc12)C(=O)O (stereo not given)",
    "UNIT_STRING": "nM",
    "ENDPOINT_VALUE": 51
  }
]

a. O=C(O)[C@H](Cc1c[nH]c2ccccc12)NC(=O)[C@H](CS)[C@H]1CCCc2ccccc21
b. O=C(O)[C@H](Cc1c[nH]c2ccccc12)NC(=O)[C@H](CS)[C@@H]1CCCc2ccccc21
input: Looking at recorded values for Ki, does a or b come in lower? Returns: label corresponding to the selected item.
output: a
(a: 3 nM, b: 43 nM)

P. CC(c1ccccc1)C(CS)C(=O)NC(Cc1c[nH]c2ccccc12)C(=O)O (stereo not given)
Q. O=C(O)[C@H](Cc1c[nH]c2ccccc12)NC(=O)[C@@H](CS)[C@@H]1CCc2ccccc21
input: Looking at recorded values for Ki, does P or Q come in lower? Returns: label corresponding to the selected item.
output: P
(P: 3 nM, Q: 10 nM)

1. C[C@H](c1ccccc1)[C@H](CS)C(=O)N[C@@H](Cc1c[nH]c2ccccc12)C(=O)O
2. C[C@@H](c1ccc(-c2ccccc2)cc1)[C@H](CS)C(=O)N[C@@H](Cc1c[nH]c2ccccc12)C(=O)O
3. O=C(N[C@@H](Cc1c[nH]c2ccccc12)C(=O)O)C(CS)[C@@H]1CCCc2ccccc21 (stereo not given in full)
4. CC(c1ccc(-c2ccccc2)cc1)C(CS)C(=O)N[C@@H](Cc1c[nH]c2ccccc12)C(=O)O (stereo not given in full)
5. C[C@@H](c1ccc(-c2ccccc2)cc1)[C@@H](CS)C(=O)N[C@@H](Cc1c[nH]c2ccccc12)C(=O)O
input: Arrange the 5 compounds from largest to smallest Ki. Dear reader, please state the labels in the requested order.
output: 2, 3, 4, 1, 5
(2: 35 nM, 3: 8 nM, 4: 4.8 nM, 1: 2.2 nM, 5: 1.5 nM)

1. C[C@@H](c1ccccc1)[C@@H](CS)C(=O)N[C@@H](Cc1c[nH]c2ccccc12)C(=O)O
2. O=C(O)[C@H](Cc1c[nH]c2ccccc12)NC(=O)[C@H](CS)[C@@H]1CCc2ccccc21
input: Select the item with the higher value of Ki from the options 1 and 2 listed. Returns: label corresponding to the selected item.
output: 2

====

Target: UniProt P47820
Test: Inhibition of Angiotensin I converting enzyme ACE)
ASSAY_READOUT: IC50 (nM)
Output spec: scalar in nM, unitless text.

input: Name the reported IC50 value associated with the molecule O=C1N[C@H](C(=O)O)CCCCCCc2cccc(c2)CC1CS (stereo partly specified)
output: 175

====

Biological target: UniProt:P47820
Sequence (P47820 whole entry): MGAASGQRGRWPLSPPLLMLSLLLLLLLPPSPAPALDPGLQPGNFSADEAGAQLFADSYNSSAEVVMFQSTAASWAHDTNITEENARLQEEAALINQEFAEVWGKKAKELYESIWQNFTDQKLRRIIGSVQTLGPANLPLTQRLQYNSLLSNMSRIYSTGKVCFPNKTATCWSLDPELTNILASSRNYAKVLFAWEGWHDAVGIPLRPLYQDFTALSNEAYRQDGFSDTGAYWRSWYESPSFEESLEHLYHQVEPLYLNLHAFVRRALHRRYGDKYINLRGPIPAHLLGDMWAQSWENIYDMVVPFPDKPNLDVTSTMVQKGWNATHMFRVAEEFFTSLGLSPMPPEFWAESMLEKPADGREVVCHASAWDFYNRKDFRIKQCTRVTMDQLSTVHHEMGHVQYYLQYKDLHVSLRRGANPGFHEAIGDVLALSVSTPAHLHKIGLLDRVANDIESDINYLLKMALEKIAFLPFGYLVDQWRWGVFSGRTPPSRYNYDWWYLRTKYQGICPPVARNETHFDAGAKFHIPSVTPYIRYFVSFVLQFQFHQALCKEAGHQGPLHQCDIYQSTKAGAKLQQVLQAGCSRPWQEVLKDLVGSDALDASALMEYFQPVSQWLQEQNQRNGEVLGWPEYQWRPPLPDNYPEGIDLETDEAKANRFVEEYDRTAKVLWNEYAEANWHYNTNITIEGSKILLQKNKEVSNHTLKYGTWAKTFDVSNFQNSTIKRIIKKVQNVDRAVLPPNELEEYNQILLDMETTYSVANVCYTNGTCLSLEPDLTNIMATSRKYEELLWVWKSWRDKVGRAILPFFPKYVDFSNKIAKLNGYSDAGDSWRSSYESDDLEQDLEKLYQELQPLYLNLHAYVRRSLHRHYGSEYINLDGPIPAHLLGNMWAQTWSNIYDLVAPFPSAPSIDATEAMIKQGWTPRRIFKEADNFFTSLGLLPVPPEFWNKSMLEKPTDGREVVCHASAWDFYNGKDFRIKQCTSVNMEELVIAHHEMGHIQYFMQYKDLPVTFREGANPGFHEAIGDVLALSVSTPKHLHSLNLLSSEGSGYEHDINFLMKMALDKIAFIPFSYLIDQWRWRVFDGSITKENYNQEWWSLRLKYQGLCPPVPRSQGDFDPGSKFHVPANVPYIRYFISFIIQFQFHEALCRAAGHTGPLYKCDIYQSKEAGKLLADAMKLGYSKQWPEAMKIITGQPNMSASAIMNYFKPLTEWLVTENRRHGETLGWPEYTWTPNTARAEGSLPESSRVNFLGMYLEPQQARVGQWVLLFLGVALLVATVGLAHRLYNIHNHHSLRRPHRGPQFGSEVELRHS
Experiment: Inhibition of Angiotensin I converting enzyme (ACE) purified from rat testis
pKi: −log10 of the molar value.
ASSAY_READOUT: pKi

Example compounds with recorded pKi:
[
  {
    "COMPOUND": "O=C(O)[C@H](Cc1c[nH]c2ccccc12)NC(=O)[C@H](CS)[C@H]1CCc2ccccc21",
    "pKi": 7.37
  },
  {
    "COMPOUND": "O=C(O)[C@H](Cc1c[nH]c2ccccc12)NC(=O)[C@H](CS)[C@@H]1CCc2ccccc21",
    "pKi": 6.77
  },
  {
    "COMPOUND": "C[C@H](c1ccc(-c2ccccc2)cc1)[C@H](CS)C(=O)N[C@@H](Cc1c[nH]c2ccccc12)C(=O)O",
    "pKi": 7.19
  },
  {
    "COMPOUND": "C[C@@H](c1ccccc1)[C@@H](CS)C(=O)N[C@@H](Cc1c[nH]c2ccccc12)C(=O)O",
    "pKi": 7.48
  },
  {
    "COMPOUND": "O=C(O)[C@H](Cc1c[nH]c2ccccc12)NC(=O)[C@H](CS)[C@H]1CCCc2ccccc21",
    "pKi": 7.12
  }
]

A. CC(c1ccccc1)C(CS)C(=O)NC(Cc1c[nH]c2ccccc12)C(=O)O (stereo not given)
B. C[C@H](c1ccccc1)[C@@H](CS)C(=O)N[C@@H](Cc1c[nH]c2ccccc12)C(=O)O
input: Select the item with the higher value of pKi from the options A and B listed. Returns: label corresponding to the selected item.
output: A
